Measured values drawn from ChEMBL document CHEMBL1153520 for this set.

# Intrinsic activity per record follows
biological target: 5-hydroxytryptamine receptor 4 (Homo sapiens, UniProt Q13639); assay: Intrinsic activity at human 5HT4C receptor expressed in HEK293 cells assessed as accumulation of cAMP by flash plate adenylyl cyclase activation assay relative to serotonin; type: functional, cell-based
Sequence (Q13639 whole entry): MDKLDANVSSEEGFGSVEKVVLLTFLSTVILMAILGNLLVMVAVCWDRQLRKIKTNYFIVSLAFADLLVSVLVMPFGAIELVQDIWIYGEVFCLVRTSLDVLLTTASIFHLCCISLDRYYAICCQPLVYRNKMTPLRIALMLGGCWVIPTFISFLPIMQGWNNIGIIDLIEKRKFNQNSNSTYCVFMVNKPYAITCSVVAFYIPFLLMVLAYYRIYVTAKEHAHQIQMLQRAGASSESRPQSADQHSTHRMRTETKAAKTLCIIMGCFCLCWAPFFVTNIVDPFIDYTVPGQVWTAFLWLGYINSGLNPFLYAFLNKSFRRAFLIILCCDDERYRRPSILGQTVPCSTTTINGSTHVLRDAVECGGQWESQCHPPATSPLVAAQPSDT
METRIC: Intrinsic activity

1. COc1cc(N)c(Cl)cc1C(=O)NCCN1CCNCC1 = > 100%
2. CC(C)n1c(=O)c(C(=O)N[C@H]2C[C@H]3CC[C@@H](C2)N3CCCN2CCC[C@@H]2C(N)=O)cc2ccccc21 = > 100%
3. COc1cc(N)c(Cl)cc1C(=O)NC1CCN(CCCCCN2C(=O)c3ccccc3C2=O)CC1 = > 100%
4. COc1cc(N)c(Cl)cc1C(=O)NC1CCN(CCCCCCCCN2C(=O)c3ccccc3C2=O)CC1 = 89%
5. CC(C)n1c(=O)c(C(=O)N[C@H]2C[C@H]3CC[C@@H](C2)N3CCCCCCCCN2C(=O)c3ccccc3C2=O)cc2ccccc21 = > 100%
6. COc1cc(N)c(Cl)cc1C(=O)NC1CCN(CCCCCCCCN2CCN(S(C)(=O)=O)CC2)CC1 = > 100%
7. COc1cc(N)c(Cl)cc1C(=O)N[C@H]1C[C@H]2CC[C@@H](C1)N2 = 57%
8. CC(C)n1c(=O)c(C(=O)N[C@H]2C[C@H]3CC[C@@H](C2)N3CCCCCCCN2CCN(S(C)(=O)=O)CC2)cc2ccccc21 = > 100%
9. CC(C)n1c(=O)c(C(=O)N[C@H]2C[C@H]3CC[C@@H](C2)N3CCCCCCCN2CCCCC2)cc2ccccc21 = 90%
10. CC(C)n1c(=O)c(C(=O)N[C@H]2C[C@H]3CC[C@@H](C2)N3C[C@H](O)CN2CCN(S(C)(=O)=O)CC2)cc2ccccc21 = > 100%
11. CC(C)n1c(=O)c(C(=O)N[C@H]2C[C@H]3CC[C@@H](C2)N3CCCCCN2CCCCC2)cc2ccccc21 = > 100%
12. CC(C)n1c(=O)c(C(=O)N[C@H]2C[C@H]3CC[C@@H](C2)N3CC(O)CN2CCN(S(C)(=O)=O)CC2)cc2ccccc21 (mixture of isomers) = > 100%
13. CC(C)n1c(=O)c(C(=O)N[C@H]2C[C@H]3CC[C@@H](C2)N3CCCN(C)CCCN(C)S(C)(=O)=O)cc2ccccc21 = > 100%
14. COc1cc(N)c(Cl)cc1C(=O)NC1CCN(CCN(C)CCc2c[nH]c3ccccc23)CC1 = > 100%
15. CC(C)n1c(=O)n(C(=O)NCC2CCNCC2)c2ccccc21 = 92%
16. CC(C)n1c(=O)c(C(=O)N[C@H]2C[C@H]3CC[C@@H](C2)N3C[C@@H](O)CN2CCN(S(C)(=O)=O)CC2)cc2ccccc21 = 94%
17. COc1cc(N)c(Cl)cc1C(=O)NC1CCN(CCCCCCCCO)CC1 = > 100%
18. COc1cc(N)c(Cl)cc1C(=O)NC1CCN(CCCCCO)CC1 = > 100%
19. CC(C)n1c(=O)c(C(=O)N[C@H]2C[C@H]3CC[C@@H](C2)N3CCN2CCN(S(C)(=O)=O)CC2)cc2ccccc21 = > 100%
20. COc1cc(N)c(Cl)cc1C(=O)NC1CCN(CCCCCS(=O)(=O)O)CC1 = 93%
21. CC(C)n1c(=O)c(C(=O)N[C@H]2C[C@H]3CC[C@@H](C2)N3CCCCCCCCS(=O)(=O)O)cc2ccccc21 = > 100%
22. CC(C)n1c(=O)c(C(=O)N[C@H]2C[C@H]3CC[C@@H](C2)N3CCCCCCCN2CCC(CNS(C)(=O)=O)CC2)cc2ccccc21 = 98%
23. COc1cc(N)c(Cl)cc1C(=O)NC1CCN(CCCCCN2CCN(S(C)(=O)=O)CC2)CC1 = > 100%
24. CC(C)n1c(=O)c(C(=O)N[C@H]2C[C@H]3CC[C@@H](C2)N3CCCCCN(C)CCc2c[nH]c3ccccc23)cc2ccccc21 = > 100%
25. CC(C)n1c(=O)c(C(=O)N[C@H]2C[C@H]3CC[C@@H](C2)N3CCN2C(=O)c3ccccc3C2=O)cc2ccccc21 = > 100%
26. CC(C)n1c(=O)c(C(=O)N[C@H]2C[C@H]3CC[C@@H](C2)N3CCCN2CCN(c3ccccc3)CC2)cc2ccccc21 = > 100%
27. CC(C)n1c(=O)c(C(=O)N[C@H]2C[C@H]3CC[C@@H](C2)N3CCN2CCCCC2)cc2ccccc21 = > 100%
28. CC(C)n1c(=O)c(C(=O)N[C@H]2C[C@H]3CC[C@@H](C2)N3CCCCCCCN(C)CCCN(C)S(C)(=O)=O)cc2ccccc21 = 96%
29. CC(C)n1nc(C(=O)N[C@H]2C[C@H]3CC[C@@H](C2)N3)c2ccccc21 = 94%
30. CCCCCCCCN1[C@@H]2CC[C@H]1C[C@@H](NC(=O)c1cc3ccccc3n(C(C)C)c1=O)C2 = > 100%
31. CC(C)n1c(=O)c(C(=O)N[C@H]2C[C@H]3CC[C@@H](C2)N3CCS(=O)(=O)O)cc2ccccc21 = > 100%
32. CC(C)n1c(=O)c(C(=O)N[C@H]2C[C@H]3CC[C@@H](C2)N3CCCCCCCN2CCN(c3ccccc3)CC2)cc2ccccc21 = > 100%
